pIC50: −log10 of the molar value.
Entries with reported pIC50 on Kappa-type opioid receptor (Cavia porcellus)
Sequence (P41144 whole entry): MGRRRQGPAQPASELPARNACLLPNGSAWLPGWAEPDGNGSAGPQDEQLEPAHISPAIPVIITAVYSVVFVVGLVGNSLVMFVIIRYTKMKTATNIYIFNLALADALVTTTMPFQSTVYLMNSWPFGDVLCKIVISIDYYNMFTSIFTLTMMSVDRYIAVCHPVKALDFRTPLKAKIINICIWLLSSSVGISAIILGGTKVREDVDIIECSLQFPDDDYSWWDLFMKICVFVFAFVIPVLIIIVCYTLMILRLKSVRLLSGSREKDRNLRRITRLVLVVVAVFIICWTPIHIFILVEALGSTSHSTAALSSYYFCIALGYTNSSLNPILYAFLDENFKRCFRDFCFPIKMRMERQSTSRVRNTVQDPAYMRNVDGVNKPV
Experimental endpoint: pIC50

[[record]]
smiles_string = "CC(=O)c1ccc2c3c1O[C@H]1[C@@H](O)C=C[C@H]4[C@@H](C2)N(C)CC[C@@]341"
observed_measurement = 5.29

[[record]]
smiles_string = "Cc1ccc2c3c1O[C@H]1[C@@H](O)C=C[C@H]4[C@@H](C2)N(C)CC[C@@]341"
observed_measurement = 4.44

[[record]]
smiles_string = "CN1CC[C@]23c4c5ccc(-c6ccccc6)c4O[C@H]2[C@@H](O)C=C[C@H]3[C@H]1C5"
observed_measurement = 4.12

[[record]]
smiles_string = "CN1CC[C@]23c4c5ccc(-c6ccsc6)c4O[C@H]2[C@@H](O)C=C[C@H]3[C@H]1C5"
observed_measurement = 4.82

[[record]]
smiles_string = "CN1CC[C@]23c4c5ccc(-c6ccoc6)c4O[C@H]2[C@@H](O)C=C[C@H]3[C@H]1C5"
observed_measurement = 6.04

[[record]]
smiles_string = "CN1CC[C@]23c4c5ccc(-c6cc7ccccc7s6)c4O[C@H]2[C@@H](O)C=C[C@H]3[C@H]1C5"
observed_measurement = 3.90

[[record]]
smiles_string = "CN1CC[C@]23c4c5cccc4O[C@H]2[C@@H](O)C=C[C@H]3[C@H]1C5"
observed_measurement = 4.96

[[record]]
smiles_string = "CN1CC[C@]23c4c5ccc(-c6cccs6)c4O[C@H]2[C@@H](O)C=C[C@H]3[C@H]1C5"
observed_measurement = 4.60

[[record]]
smiles_string = "CN1CC[C@]23c4c5ccc(OS(=O)(=O)C(F)(F)F)c4O[C@H]2[C@@H](O)C=C[C@H]3[C@H]1C5"
observed_measurement = 3.95

[[record]]
smiles_string = "CN1CC[C@]23c4c5ccc(-c6ccco6)c4O[C@H]2[C@@H](O)C=C[C@H]3[C@H]1C5"
observed_measurement = 5.02


###

pIC50: −log10 of the molar value.
Entries with reported pIC50 on Mu-type opioid receptor (Cavia porcellus)
Sequence (P97266 whole entry): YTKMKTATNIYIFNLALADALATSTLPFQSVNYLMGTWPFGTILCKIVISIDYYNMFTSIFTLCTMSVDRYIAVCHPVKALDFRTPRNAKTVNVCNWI
Experimental endpoint: pIC50

[[record]]
smiles_string = "CN1CC[C@]23c4c5ccc(OS(=O)(=O)C(F)(F)F)c4O[C@H]2[C@@H](O)C=C[C@H]3[C@H]1C5"
experimental_endpoint = "pIC50"
observed_measurement = 5.19

[[record]]
smiles_string = "CC(=O)c1ccc2c3c1O[C@H]1[C@@H](O)C=C[C@H]4[C@@H](C2)N(C)CC[C@@]341"
experimental_endpoint = "pIC50"
observed_measurement = 6.19

[[record]]
smiles_string = "CN1CC[C@]23c4c5cccc4O[C@H]2[C@@H](O)C=C[C@H]3[C@H]1C5"
experimental_endpoint = "pIC50"
observed_measurement = 6.28

[[record]]
smiles_string = "CN1CC[C@]23c4c5ccc(-c6ccco6)c4O[C@H]2[C@@H](O)C=C[C@H]3[C@H]1C5"
experimental_endpoint = "pIC50"
observed_measurement = 5.59

[[record]]
smiles_string = "CN1CC[C@]23c4c5ccc(-c6ccoc6)c4O[C@H]2[C@@H](O)C=C[C@H]3[C@H]1C5"
experimental_endpoint = "pIC50"
observed_measurement = 6.70

[[record]]
smiles_string = "Cc1ccc2c3c1O[C@H]1[C@@H](O)C=C[C@H]4[C@@H](C2)N(C)CC[C@@]341"
experimental_endpoint = "pIC50"
observed_measurement = 5.35

[[record]]
smiles_string = "CN1CC[C@]23c4c5ccc(-c6ccsc6)c4O[C@H]2[C@@H](O)C=C[C@H]3[C@H]1C5"
experimental_endpoint = "pIC50"
observed_measurement = 5.48

